# protocolDetails: Volume of distribution at steady state in cancer patient at 120 mg for 60 mins treated 1/8 cycle/day
# Type: ADME, organism-based
# Parameters: dosed compound name LY2090314
# assayConditions: human, in vivo, read-out: Vdss
quantityKind: Vd (L)
The answer is to be given in L; state only the numeric part.

Exam item: Answer with the recorded Vd of O=C1NC(=O)C(c2cnc3ccccn23)=C1c1cn2c3c(cc(F)cc13)CN(C(=O)N1CCCCC1)CC2 only.
Marked response: 143

====

# protocolDetails: Cmax in cancer patient at 120 mg for 60 mins treated 1/8 cycle/day
# Assay type: ADME, organism-based
# Design: dose 120 mg, dosed compound name LY2090314
# assayConditions: human, in vivo
quantityKind: Cmax (ng/mL)
The answer is to be given in ng/mL; state only the numeric part.

Exam item: Answer with the recorded Cmax of O=C1NC(=O)C(c2cnc3ccccn23)=C1c1cn2c3c(cc(F)cc13)CN(C(=O)N1CCCCC1)CC2 [LY-2090314] only.
Marked response: 768
